Below, each entry is listed alongside its reported protein stability index.
B1: LYSMD4 (parent)
chain: LLQRELAQEDSLNKLALQYGCKVA

# Variants of: B1
# Assay Protocol: protein stability index of a GFP-peptide fusion (GPS, HEK-293T) (PSI 1-6); higher = more stable;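 further: lentivirally expressed fusions sorted by FACS into six bins by GFP to DsRed ratio, PSI derived from sequencing read proportions per bin multiplied by bin number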
# Stated Conditions: c terminus: a fixed tail appended
The answer should be a number; do not append a unit.

Examples with their reported protein stability index follow.
LLQTELAQEDSLNKLALQYGCKVA : 1.9
LLQRELAQEDSLNKLELQYGCKVA : 1.65
LLQRELTQEDSLNKLALQYGCKVA : 1.87

Data request: What does the data say about its protein stability index? Entry: LLQREWAQEDSLNKLALQYGCKVA
Data returned: 1.87

Data request: Try LLQRELAQEDSLNKLACQYGCKVA next.
Data returned: 1.49

Data request: Please give the result for LLQRELAQEDSDNKLALQYGCKVA too.
Data returned: 4.13
